half effective concentration (Ic 50): recorded values
- Assayed System: cation transport ATPase in liver mitochondria
- Assay Summary: inhibition of cation transport ATPase in liver mitochondria, in vitro
- Type: biochemical
- Test Parameters: ATPase induced by K^+ monazomycin
Write down the numeric answer in µg/mL and omit the unit.

CNc1c(Br)cc2oc(CC3OC4(CCC3C)OC(C(C)C(=O)c3ccc[nH]3)C(C)CC4C)nc2c1C(=O)O (stereo not shown) [4-bromo-A-23187 (free acid)] : 0.3
CNc1c(Cl)cc2oc(CC3OC4(CCC3C)OC(C(C)C(=O)c3ccc[nH]3)C(C)CC4C)nc2c1C(=O)O (stereo not shown) [4-chloro-A-23187 (free acid)] : 0.2
CNc1c(Br)cc2oc(CC3OC4(CCC3C)OC(C(C)C(=O)c3cc(Br)c[nH]3)C(C)CC4C)nc2c1C(=O)O (stereo not shown) [4,23-dibromo-A-23187 (free acid)] : 0.5

Give me measured half effective concentration (Ic 50), please, for this compound: CNc1ccc2oc(CC3OC4(CCC3C)OC(C(C)C(=O)c3ccc[nH]3)C(C)CC4C)nc2c1C(=O)O (stereo not shown) [A-23187 (free acid), reference compound]
0.5

----------
- Assayed System: cation transport ATPase in liver mitochondria
- Assay Summary: inhibition of cation transport ATPase in liver mitochondria, in vitro
- Type: biochemical
- Test Parameters: ATPase induced by CaCl2
// reported half effective concentration (Ic 50) per item
API: value field is a number in µg/mL; no unit string.

CNc1c(Cl)cc2oc(CC3OC4(CCC3C)OC(C(C)C(=O)c3ccc[nH]3)C(C)CC4C)nc2c1C(=O)O (stereo not shown) [4-chloro-A-23187 (free acid)] : 10
CNc1ccc2oc(CC3OC4(CCC3C)OC(C(C)C(=O)c3ccc[nH]3)C(C)CC4C)nc2c1C(=O)O (stereo not shown) [A-23187 (free acid), reference compound] : 0.5
CNc1c(Br)cc2oc(CC3OC4(CCC3C)OC(C(C)C(=O)c3cc(Br)c[nH]3)C(C)CC4C)nc2c1C(=O)O (stereo not shown) [4,23-dibromo-A-23187 (free acid)] : 0.9

--- query ---
Output half effective concentration (Ic 50) of CNc1c(Br)cc2oc(CC3OC4(CCC3C)OC(C(C)C(=O)c3ccc[nH]3)C(C)CC4C)nc2c1C(=O)O (stereo not shown) [4-bromo-A-23187 (free acid)]
0.9

----------
- Assay Summary: acute toxicity in mice, intraperitoneal
- Format: in vivo
- Test Parameters: mouse, in vivo, ip, intraperitoneally
- Protocol: The compounds of the present invention are, in general, less toxic than the parent antibiotic. Table II summarizes the acute toxicities of representative compounds in mice, expressed as LD50, when the compounds are administered intraperitoneally.
Readout Type: LD50

See these solved cases before continuing.
CNc1c(Cl)cc2oc(CC3OC4(CCC3C)OC(C(C)C(=O)c3ccc[nH]3)C(C)CC4C)nc2c1C(=O)O (stereo not drawn) [4-chloro-A-23187 (free acid)] : 10.5 mg/kg
CNc1c(Br)cc2oc(CC3OC4(CCC3C)OC(C(C)C(=O)c3ccc[nH]3)C(C)CC4C)nc2c1C(=O)O (stereo not drawn) [4-bromo-A-23187 (free acid)] : 11.9 mg/kg

Let us examine a further case.
Please give measured LD50 of the following entry: CNc1ccc2oc(CC3OC4(CCC3C)OC(C(C)C(=O)c3ccc[nH]3)C(C)CC4C)nc2c1C(=O)O (stereo not drawn) [A-23187 (free acid), reference compound]
5.8 mg/kg
